Tested on: Plasmodium berghei
Experiment: Screen against P. berghei liver stage (PbLuc), transformed with Luciferase, at 10uM
Type: functional, HepG2
Settings: tested at 10 uM
In all, about 69,000 compounds went through this assay and about 8,600 (12%) showed an effect of 50% or more. For the sample, strong results were picked, then their nearest neighbours and some compounds at random.

# Compound, INHIBITION / %
records = [
    ("CN1C(Cn2cccn2)C[C@@H]2CN(Cc3cnn(C)c3)CC[C@@H]21 (stereo partly drawn)", -10.3),
    ("COc1ccc(S(=O)(=O)NCCCc2ccc(N(C)C)cc2)cc1Cl", 41.9),
    ("O=C(CSc1nnc(N2CCOCC2)s1)NC(=O)Nc1ccccc1", -1),
    ("COCC(c1cccc(C(F)(F)F)c1)N(C)C(=O)c1ccco1 (stereo not drawn)", 48.45),
    ("CN1C(Cn2cccn2)C[C@@H]2CN(Cc3nccs3)CC[C@@H]21 (stereo partly drawn)", 20.4),
    ("c1csc(CN2Cc3nccn3CC(Cn3cncn3)C2)c1 (stereo not drawn)", -22.1),
    ("CCc1nc(C2CCCN2Cc2nnc(C3CCC3)o2)no1 (stereo not drawn)", 41.65),
    ("C[C@H]1CN2C[C@H](O)CC2CN1Cc1ccc2nccnc2c1 (stereo partly drawn)", 17.4),
    ("COc1ccc(CN(C)CCS(=O)(=O)c2ccc(Cl)cc2)cc1OC", 68.8),
    ("O=C(CSc1nnc(N2CCNCC2)s1)Nc1ccccc1", 59.2),
    ("CN(Cc1ccco1)c1ccc(C(=O)NCCCc2ccccn2)cn1", 58.2),
    ("CCn1c(N)nc2cc(C(=O)NCCCc3ccccn3)cnc21", 11.8),
    ("Cc1ccc(OC2(C(=O)NC(C)Cc3ccncc3)CCNCC2)cc1 (stereo not drawn)", 26.7),
    ("O=C(NCCCc1ccco1)c1cnc(N2CCOCC2)nc1", -18.8),
    ("COc1ccc(CN2C[C@H](N3CCCC3=O)[C@@H]3OCCC[C@@H]32)cc1", 48.2),
    ("c1cnc2c(c1)cc([C@H]1CCCO1)n2CCN1CCOCC1", 30.1),
    ("O=C1CCC(c2nc(C3CCN(C(=O)Cc4cccs4)CC3)no2)N1 (stereo not drawn)", -31.1),
    ("CC(C)N1CCc2c(C(=O)N3CCOCC3)nn(C)c2C1", 42.1),
    ("Cc1cnc(C(=O)N2C[C@@H]3CC[C@H]2CN(S(=O)(=O)N(C)C)C3)cn1", 42),
    ("CCN(Cc1nccs1)Cc1cc(Cl)ccc1OC", 15.3),
    ("COc1ccc(CCCN(C)C(=O)c2cc(Cl)c[nH]2)cc1OC", 16.6),
    ("NC(=O)c1cnn2c1NCC(CNCCc1cccs1)C2 (stereo not drawn)", 21.75),
    ("c1cnn(C[C@@H]2C[C@@H]3CN(CC4CC4)CC[C@@H]3N2c2nccs2)c1", 79.2),
]
